- PROTOCOL_SUMMARY: Half life in pig serum by HPLC analysis
- Format: ADME, cell-free, Sus scrofa
REPORTED_PROPERTY: half-life (h)
The response must be a number in h with no trailing unit.

Data request: Which half-life value belongs to N=C(N)NCCCCCC(=O)O[C@H]1C[C@H](n2cc([125I])c(=O)[nH]c2=O)O[C@@H]1CO ?
Data returned: 3.59

====

- PROTOCOL_SUMMARY: Stability in human serum assessed as intact compound level after 60 mins by HPLC analysis
- Assay type: ADME, cell-free
- APPLIED_CONDITIONS: read-out: Stability
REPORTED_PROPERTY: remaining at 1 h (%)

| COMPOUND | remaining at 1 h (%) |
| --- | --- |
| N=C(N)NCCCCCC(=O)OC[C@H]1O[C@@H](n2cc([125I])c(=O)[nH]c2=O)C[C@@H]1O | 47 |
| N=C(N)NCCCCCC(=O)O[C@H]1C[C@H](n2cc([125I])c(=O)[nH]c2=O)O[C@@H]1CO | 62.4 |

====

- PROTOCOL_SUMMARY: Drug level in tumor of NCR nu/nu mouse xenografted with human BE(2)-C cells at 0.83 +/- 0.09 MBq administered intratumorally after 24 hrs by gamma counting analysis
- Type: ADME, tissue-based, Neoplasm
- APPLIED_CONDITIONS: in vivo, other
REPORTED_PROPERTY: Drug uptake (% ID/g)
The response must be a number in % ID/g with no trailing unit.

Data request: Which Drug uptake value belongs to N=C(N)NCc1cccc([125I])c1 ?
Data returned: 1.85

====

- PROTOCOL_SUMMARY: Dissociation constant, pKa of compound
- Format: physicochemical
REPORTED_PROPERTY: pKa

| COMPOUND | pKa |
| --- | --- |
| N=C(N)NC[C@H]1O[C@@H](n2cc([125I])c(=O)[nH]c2=O)C[C@@H]1O | 11.5 |
| N=C(N)NCc1cccc(I)c1 | 11.8 |
| CC(C)(C)c1cc(C(C)(C)C)c2c(c1F)COP(=O)(OC[C@H]1O[C@@H](n3cc([125I])c(=O)[nH]c3=O)C[C@@H]1OC(=O)CCCCCNC(=N)N)O2 (some centres not stated) | 12.1 |
| N=C(N)NCCC(=O)OC[C@H]1O[C@@H](n2cc([125I])c(=O)[nH]c2=O)C[C@@H]1O | 11.9 |
| N=C(N)NCc1ccc(C(=O)OC[C@H]2O[C@@H](n3cc([125I])c(=O)[nH]c3=O)C[C@@H]2O)cc1 | 11.9 |
| N=C(N)NCCCCCC(=O)OC[C@H]1O[C@@H](n2cc([125I])c(=O)[nH]c2=O)C[C@@H]1O | 12.2 |
| N=C(N)NCCCCCC(=O)O[C@H]1C[C@H](n2cc([125I])c(=O)[nH]c2=O)O[C@@H]1CO | 12.1 |

====

- EXPERIMENTAL_SYSTEM: Sodium-dependent noradrenaline transporter (Homo sapiens)
- PROTOCOL_SUMMARY: Substrate activity at NET in human SK-N-SH cells assessed as inhibition of drug uptake by measuring MIBG IC50 incubated for 1 hr in presence of nonradioactive MIBG at 37 degC by filtration based gamma counting method
- Format: cell-based
REPORTED_PROPERTY: IC50 (µM)
The response must be a number in µM with no trailing unit.

Data request: Which IC50 value belongs to N=C(N)NCCCCCC(=O)O[C@H]1C[C@H](n2cc([125I])c(=O)[nH]c2=O)O[C@@H]1CO ?
Data returned: 35.2

====

- PROTOCOL_SUMMARY: Stability in human SK-N-SH cells assessed as parent compound level after 24 hrs by HPLC analysis
- Type: ADME, cell-based
- APPLIED_CONDITIONS: read-out: Stability
REPORTED_PROPERTY: remaining at 24 h (%)

| COMPOUND | REPORTED_PROPERTY | RECORDED_NUMBER |
| --- | --- | --- |
| N=C(N)NCCCCCC(=O)O[C@H]1C[C@H](n2cc([125I])c(=O)[nH]c2=O)O[C@@H]1CO | remaining at 24 h | 33 |
| N=C(N)NCCCCCC(=O)OC[C@H]1O[C@@H](n2cc([125I])c(=O)[nH]c2=O)C[C@@H]1O | remaining at 24 h | 30 |

====

- PROTOCOL_SUMMARY: Half life in mouse serum by HPLC analysis
- Format: ADME, cell-free
REPORTED_PROPERTY: half-life (min)
The response must be a number in min with no trailing unit.

Data request: Which half-life value belongs to N=C(N)NCCCCCC(=O)O[C@H]1C[C@H](n2cc([125I])c(=O)[nH]c2=O)O[C@@H]1CO ?
Data returned: 3.54

====

- PROTOCOL_SUMMARY: Drug uptake in human SK-N-SH cells assessed as level of 125I-incorporation into DNA incubated 1 hr followed by compound washout with non-radioactive medium/PBS and measured after 23 hrs by gamma counting method relative to control
- Format: ADME, cell-based
REPORTED_PROPERTY: Drug uptake (%)
The response must be a number in % with no trailing unit.

Data request: Which Drug uptake value belongs to CC(C)(C)c1cc(C(C)(C)C)c2c(c1F)COP(=O)(OC[C@H]1O[C@@H](n3cc([125I])c(=O)[nH]c3=O)C[C@@H]1OC(=O)CCCCCNC(=N)N)O2 (some centres not stated) ?
Data returned: 42

====

- PROTOCOL_SUMMARY: Drug level in human SK-N-SH cells DNA at 40 +/- 0.5 kBq/mL after 1 hr and followed by compound washout with non-radioactive medium/PBS and measured immediately by gamma counting method relative to control
- Type: ADME, cell-based
REPORTED_PROPERTY: Drug uptake

Data request: Which Drug uptake value belongs to N=C(N)NCCCCCC(=O)O[C@H]1C[C@H](n2cc([125I])c(=O)[nH]c2=O)O[C@@H]1CO ?
Data returned: 70 to 80%

====

- PROTOCOL_SUMMARY: Stability in EMEM medium assessed as intact compound level incubated for 24 hrs by HPLC analysis
- Assay type: physicochemical
- APPLIED_CONDITIONS: read-out: Stability
REPORTED_PROPERTY: remaining at 24 h (%)
The response must be a number in % with no trailing unit.

Data request: Which remaining at 24 h value belongs to N=C(N)NCCCCCC(=O)O[C@H]1C[C@H](n2cc([125I])c(=O)[nH]c2=O)O[C@@H]1CO ?
Data returned: 86

====

- PROTOCOL_SUMMARY: Stability in human serum assessed as intact compound level after 5 mins by HPLC analysis
- Assay type: ADME, cell-free
- APPLIED_CONDITIONS: read-out: Stability
REPORTED_PROPERTY: remaining at 5 min (%)

| COMPOUND | remaining at 5 min (%) |
| --- | --- |
| N=C(N)NCCCCCC(=O)OC[C@H]1O[C@@H](n2cc([125I])c(=O)[nH]c2=O)C[C@@H]1O | 77 |
| N=C(N)NCCCCCC(=O)O[C@H]1C[C@H](n2cc([125I])c(=O)[nH]c2=O)O[C@@H]1CO | 93 |

====

- EXPERIMENTAL_SYSTEM: Sodium-dependent noradrenaline transporter (Homo sapiens, UniProt P23975)
- Sequence (P23975 whole entry): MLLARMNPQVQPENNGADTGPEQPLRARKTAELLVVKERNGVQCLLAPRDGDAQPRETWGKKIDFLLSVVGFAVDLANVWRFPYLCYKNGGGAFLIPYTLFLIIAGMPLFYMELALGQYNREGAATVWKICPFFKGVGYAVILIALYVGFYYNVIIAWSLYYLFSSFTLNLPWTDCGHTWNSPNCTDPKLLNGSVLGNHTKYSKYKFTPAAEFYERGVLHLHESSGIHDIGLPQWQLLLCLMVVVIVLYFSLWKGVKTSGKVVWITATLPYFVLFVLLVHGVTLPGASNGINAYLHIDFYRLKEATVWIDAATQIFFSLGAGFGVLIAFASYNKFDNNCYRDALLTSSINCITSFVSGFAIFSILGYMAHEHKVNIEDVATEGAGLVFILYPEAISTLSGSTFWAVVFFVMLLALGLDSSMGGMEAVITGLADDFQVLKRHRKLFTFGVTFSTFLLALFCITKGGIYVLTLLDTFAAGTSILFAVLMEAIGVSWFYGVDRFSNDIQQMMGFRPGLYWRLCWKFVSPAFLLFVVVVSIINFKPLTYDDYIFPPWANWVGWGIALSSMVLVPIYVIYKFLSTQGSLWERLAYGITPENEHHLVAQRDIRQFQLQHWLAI
- PROTOCOL_SUMMARY: Substrate activity at NET in human BE(2)-C cells assessed as inhibition of drug uptake by measuring MIBG IC50 incubated for 1 hr in presence of nonradioactive MIBG at 37 degC by filtration based gamma counting method
- Assay type: cell-based
REPORTED_PROPERTY: pIC50
pIC50 is defined as minus the log10 of a concentration measured in mol/L.

Data request: What value of pIC50 on Sodium-dependent noradrenaline transporter (Homo sapiens, UniProt P23975) does N=C(N)NCCCCCC(=O)O[C@H]1C[C@H](n2cc([125I])c(=O)[nH]c2=O)O[C@@H]1CO have?
Data returned: 4.54

====

- EXPERIMENTAL_SYSTEM: Sodium-dependent noradrenaline transporter (Homo sapiens, UniProt P23975)
- PROTOCOL_SUMMARY: Substrate activity at NET in human BE(2)-C cells assessed as inhibition of drug uptake by measuring MIBG IC50 incubated for 1 hr in presence of nonradioactive MIBG by gamma counting method
- Type: cell-based
REPORTED_PROPERTY: IC50 (µM)
The response must be a number in µM with no trailing unit.

Data request: Which IC50 value belongs to N=C(N)NCCCCCC(=O)O[C@H]1C[C@H](n2cc([125I])c(=O)[nH]c2=O)O[C@@H]1CO ?
Data returned: 8.2

====

- PROTOCOL_SUMMARY: Half life in human serum incubated up to 24 hrs by HPLC analysis
- Type: ADME, cell-free
REPORTED_PROPERTY: half-life (min)

| COMPOUND | UNIT_ANNOTATION | half-life |
| --- | --- | --- |
| CC(C)(C)c1cc(C(C)(C)C)c2c(c1F)COP(=O)(OC[C@H]1O[C@@H](n3cc([125I])c(=O)[nH]c3=O)C[C@@H]1OC(=O)CCCCCNC(=N)N)O2 (some centres undefined) | min | 900 |
| N=C(N)NCCCCCC(=O)OC[C@H]1O[C@@H](n2cc([125I])c(=O)[nH]c2=O)C[C@@H]1O | min | 53.4 |

P: N=C(N)NCc1ccc(C(=O)OC[C@H]2O[C@@H](n3cc([125I])c(=O)[nH]c3=O)C[C@@H]2O)cc1
Q: N=C(N)NCCC(=O)OC[C@H]1O[C@@H](n2cc([125I])c(=O)[nH]c2=O)C[C@@H]1O
Data request: Parameter check: reported half-life is higher for which label, P or Q ? Please reply using the label of the selected record.
Data returned: P
(P: 45.6 min, Q: 23.4 min)
